Just for reference, the NIST ThermoML archive (doi:10.1016/j.jct.2003.09.004) is where these values come from.

Details: 298.15 K; 101.33 kPa; Liquid
// values below are reported mass density

{"columns": ["Entry Smiles", "mass density / kg/m3"],
 "data": [
  ["CC(C)C(C)C", 662.36],
  ["C=CCCCC", 668.73],
  ["CCC(C)CC", 659.94],
  ["CCC(C)(C)C", 644.92],
  ["CCCC(C)C", 650.22]
]}
